Read-out: Glutathione S-Transferase (GSTA2), GSTA2 (gene 2939)
Test: LTEA_HepaRG_GSTA2: Life Technologies and Expression Analysis (LTEA) Assay for Glutathione S-Transferase (GSTA2) using HepaRG (AID 2283497)
Details: mRNA level, 48 h; actives raise or lower the signal
Activity calls are given as the source filed them. How the source made its calls: active means hit-call score of the fitted dose curve at least 0.9, where 1 is the maximum; inactive means score below 0.9.
API: response.call in active, inactive

A selection of reference data follows.
c1ccc(C(O[C@@H]2CCCN(CCc3ccc4c(c3)OCO4)C2)c2ccccc2)cc1: active
OC[C@H]1O[C@@](CO)(O[C@H]2O[C@H](CO)[C@@H](O)[C@H](O)[C@H]2O)[C@@H](O)[C@@H]1O: inactive
CCCCCCOC(=O)CC(CC(=O)OCCCCCC)(OC(=O)CCC)C(=O)OCCCCCC: inactive
CCN(CC)C(=S)SSC(=S)N(CC)CC: inactive
OCCNCCO: active
CCCCCOC(C)=O: inactive

What was the test verdict on C=CN1CCCC1=O ? inactive

Which outcome was assigned to CCCc1ccccc1 in this test? inactive

Hello, I am checking results. What call was entered for CC1(C)C(=O)N(Cl)C(=O)N1Cl ? inactive

Per the assay record, what outcome was assigned to NC(=O)N1c2ccccc2C=Cc2ccccc21 ? inactive

Could you kindly confirm the outcome this assay logged for CCCOc1ccc(S(=O)(=O)N2CCN(CC)CC2)cc1-c1nc2c(CC)n(Cc3ccccn3)nc2c(=O)[nH]1 ? inactive

What was the test verdict on Cc1nccn1-c1ccc(Sc2cccc(C3(C(N)=O)CCOCC3)c2)cc1 ? active

* * *

Read-out: Signal transducer and activator of transcription 3 (Homo sapiens) (UniProt P40763)
Sequence (P40763 whole entry, looked up): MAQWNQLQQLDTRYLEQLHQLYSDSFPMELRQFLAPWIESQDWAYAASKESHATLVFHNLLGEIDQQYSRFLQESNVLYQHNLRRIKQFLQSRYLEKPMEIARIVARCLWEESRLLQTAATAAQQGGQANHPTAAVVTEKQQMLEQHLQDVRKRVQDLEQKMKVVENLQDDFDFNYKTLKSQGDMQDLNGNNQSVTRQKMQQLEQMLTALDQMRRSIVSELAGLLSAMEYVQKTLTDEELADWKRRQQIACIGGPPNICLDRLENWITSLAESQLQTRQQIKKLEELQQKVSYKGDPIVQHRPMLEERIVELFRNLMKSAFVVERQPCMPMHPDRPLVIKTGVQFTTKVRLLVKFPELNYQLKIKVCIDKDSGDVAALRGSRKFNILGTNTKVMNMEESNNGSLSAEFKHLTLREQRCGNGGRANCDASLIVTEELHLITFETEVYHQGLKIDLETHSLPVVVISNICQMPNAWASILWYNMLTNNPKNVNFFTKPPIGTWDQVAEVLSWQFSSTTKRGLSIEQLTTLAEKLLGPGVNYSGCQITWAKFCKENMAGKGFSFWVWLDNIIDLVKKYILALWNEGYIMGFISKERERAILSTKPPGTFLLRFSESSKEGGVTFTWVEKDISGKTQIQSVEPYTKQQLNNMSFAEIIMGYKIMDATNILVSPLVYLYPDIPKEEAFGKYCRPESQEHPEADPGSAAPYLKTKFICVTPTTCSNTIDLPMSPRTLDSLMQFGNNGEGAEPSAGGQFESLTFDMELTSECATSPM
Test: LTEA_HepaRG_STAT3: Life Technologies and Expression Analysis (LTEA) Assay for Signal transducer and activator of transcription (STAT3) using HepaRG (AID 2283529)
Settings: mRNA level, 48 h; actives raise or lower the signal
Active and inactive are the calls of the source. How the source made its calls: active means hit-call score of the fitted dose curve at least 0.9, where 1 is the maximum; inactive means score below 0.9.
READOUT NAME: outcome

Recorded outcome, per entry:
O=C(O)[C@H](O)[C@@H](O)C(=O)O: inactive
O=C1CN(N=Cc2ccc([N+](=O)[O-])o2)C(=O)N1: inactive
OCC(CO)(CO)CO: inactive
O=C(NO)C1(NS(=O)(=O)c2ccc(Oc3ccc(F)cc3)cc2)CCOCC1: inactive
OCc1ccccc1: inactive
NC(N)=O: inactive

In the following, a different compound is considered.
Report outcome, nothing else, for this compound: Nc1ccn([C@@H]2O[C@H](CO)[C@@H](O)[C@@H]2O)c(=O)n1 inactive

* * *

Target: human Norepinephrine Transporter (NET), SLC6A2 (gene 6530)
Test: NVS_TR_hNET: NovaScreen (NVS) Transporter Assay for human Norepinephrine Transporter (NET) (AID 2283377);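 further: cell-free membrane protein extracted from CHO cells expressing human NET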
Results filed as inconclusive are left out. The source made the active and inactive calls. The calls were made as follows: active = hit-call score of the fitted dose curve at least 0.9, where 1 is the maximum; inconclusive = response in the unintended direction; inactive = score below 0.9.
Choose one outcome from this list and give only that: active, inactive

Reference set (6 entries):
c1ccc(C(O[C@@H]2CCCN(CCc3ccc4c(c3)OCO4)C2)c2ccccc2)cc1: active
CCCCC(CC)C(=O)OCCOCCOCCOC(=O)C(CC)CCCC (configuration not stated): inactive
O=C(O)c1cccc(C[C@@H]2COc3ccc(OCc4nc5cc(F)ccc5s4)cc3[C@@H]2O)c1: inactive
CCN(CC)C(=S)SSC(=S)N(CC)CC: active
CNC(C)=O: inactive
COc1cc(C(C)C)c2c(c1)S(=O)(=O)N(COc1cc(=O)n3cccc(OCCN4CCCCC4)c3n1)C2=O: active

# lookup: test call for OCCOCCOCCO inactive

Cited source: PubChem BioAssay (EPA / NIEHS)
